Target: T1, p2S (p2 peptide biotinylated through its free cysteine) (human, also: biotinylated (maleimide PEO2-biotin) on one of the two Cys, which one not given here)
T1 construct: The peptide has two cysteines; also called b-p2S
T1 peptide: RPRYACCPGWKRT
Test: SPR (BIAcore-2000), IgG injected over immobilized p2S peptide;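 note: CM5 chip with immobilized peptide, IgG at 0.5–1000 nM in PBST, 3 min association and 3.5 min dissociation, reference-cell subtracted, rates fitted by 1:1 Langmuir model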
Where no end group is shown, it is not given here.
measured_metric: Kd (nM)
Quick reminder: number only, in nM, skip the unit.

Examples with answers:
[
  {
    "binder": "4F11.v4 IgG (antibody, V domains shown, IgG; Kabat numbering) VH: EVQLVESGGGLVQPGGSLRLSCAASGHTFTTYGMSWVRQAPGKGLEWVGWINTHSGVPTYADDFKGRFTISRDNSKNTVYLQMNSLRAEDTAVYYCARLGSSAVDYWGQGTLVTVSS VL: DIQMTQSPSSLSASVGDRVTITCKASQSVDYRGDSYMSWYQQKPGKAPKLLIYGASNLESGVPSRFSGSGSGTDFTLTISSLQPEDFATYYCQQNNEDPYTFGQGTKVEIK",
    "units_symbol": "nM",
    "number": 13.6
  },
  {
    "binder": "4F11.v5 IgG (antibody, V domains shown, IgG; Kabat numbering) VH: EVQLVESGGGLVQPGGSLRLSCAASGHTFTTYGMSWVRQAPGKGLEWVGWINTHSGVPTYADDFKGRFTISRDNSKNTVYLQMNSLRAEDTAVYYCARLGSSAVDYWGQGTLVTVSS VL: DIQMTQSPSSLSASVGDRVTITCKASQSVDYDGDSYVSWYQQKPGKAPKLLIYGASNLESGVPSRFSGSGSGTDFTLTISSLQPEDFATYYCQQNNEDPYTFGQGTKVEIK",
    "units_symbol": "nM",
    "number": 34
  }
]

Next up:
input: Look up Kd: 4F11.v1 IgG (antibody, V domains shown, Expressed as IgG in 293 cells; also called 4F11-graft; direct CDR-graft) VH: EVQLVESGGGLVQPGGSLRLSCAASGHTFTTYGMSWVRQAPGKGLEWVGWINTHSGVPTYADDFKGRFTISRDNSKNTLYLQMNSLRAEDTAVYYCARLGSSAVDYWGQGTLVTVSS VL: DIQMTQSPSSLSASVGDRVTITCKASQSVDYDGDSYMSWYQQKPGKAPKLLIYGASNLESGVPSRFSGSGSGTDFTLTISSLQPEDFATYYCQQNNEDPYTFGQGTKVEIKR
output: 96.8

Origin of the recorded values: patent US20140051120A1
